// values below are reported plant injury at 125 g/ha
Test system: wheat (Triticum aestivum)
test.name: Test A postemergence
Format: in vivo
measurement.conditions: Triticum aestivum, post-emergence, 240 h, 125 g ai/ha, Postemergence; visual injury after approximately 10 d; 0 to 100 scale where 0 is no effect and 100 is complete control; read-out: Plant response rating, Wheat
Numeric answer only, unit % assumed.

{"compound": "CN1C[C@H](c2cc(F)cc(C(F)(F)F)c2)[C@@H](C(=O)Nc2ccc(F)c(F)c2F)C1=O [Compound 993]", "numeric.result": 50}
{"compound": "CN1C[C@H](c2cc(F)cc(C(F)(F)F)c2)[C@@H](C(=O)Nc2cccc(Cl)c2F)C1=O [Compound 995]", "numeric.result": 20}
{"compound": "Cc1ccc([C@H]2CNC(=S)[C@@H]2C(=O)Nc2ccccc2F)cc1 (racemic) [Compound 945]", "numeric.result": 0}
{"compound": "CCc1ccccc1NC(=O)[C@H]1C(=O)N(C)C[C@@H]1c1ccc(C(F)(F)F)cc1 [Compound 935]", "numeric.result": 30}
{"compound": "CN1CC[C@H](c2cccc(Cl)c2)[C@@H](C(=O)Nc2ccccc2S(C)(=O)=O)C1=O [Compound 923]", "numeric.result": 0}

Inquiry: Could you tell me which plant injury at 125 g/ha is on file for CCOc1cc([C@H]2CN(C)C(=O)[C@@H]2C(=O)Nc2cccc(F)c2F)cc(C(F)(F)F)c1 [Compound 971] ?
Reply text: 50

Inquiry: Can you check Cc1cc([C@H]2CN(C)C(=O)[C@@H]2C(=O)Nc2cccc(F)c2F)cc(C)c1Br [Compound 1024] next?
Reply text: 0

Inquiry: Try the compound O=C1NC[C@H](c2cc(C(F)(F)F)ccn2)[C@H]1C(=O)Nc1ccccc1F [Compound 948]
Reply text: 0

Inquiry: What would you report for CC(C)Oc1ccc([C@H]2CN(C)C(=O)[C@@H]2C(=O)Nc2ccccc2F)cc1 [Compound 952] ?
Reply text: 0

Inquiry: And the next one, CN1CC[C@H](c2cccc(Cl)c2)[C@@H](C(=O)Nc2cccc(Cl)c2F)C1=O [Compound 924] ?
Reply text: 0

Inquiry: Try this compound too: CS(=O)(=O)c1ccccc1NC(=O)[C@H]1C(=O)N(C2CC2)CC[C@@H]1c1cccc(C(F)(F)F)c1 [Compound 927]
Reply text: 0

Inquiry: Next compound: Cc1ccc([C@H]2CNC(=S)[C@@H]2C(=O)Nc2cccc(F)c2F)cc1 (racemic) [Compound 946]
Reply text: 0
